Tested on: Rattus norvegicus
TEST_DETAILS: Diuretic activity in Wistar rat assessed as potassium level in excreted urine at 50 mg/kg, po measured after 0 to 5 hrs by flame photometric analysis relative to urea-treated control
Format: functional
Entries and their Ratio values follow.
Give your answer as a number; write no unit.

Examples with answers:
# COMPOUND, TESTED_SYSTEM, QUANTITATIVE_RESULT
measured = [
    ("CC(=O)N1CCc2cc(S(N)(=O)=O)c(Cl)cc21", "Rattus norvegicus", 0.53),
    ("NS(=O)(=O)c1cc(C(=O)NN2CCc3cc(S(N)(=O)=O)c(Cl)cc32)ccc1Cl", "Rattus norvegicus", 1.09),
    ("NS(=O)(=O)c1cc2c(cc1Cl)N(C(=O)c1ccccc1)CC2", "Rattus norvegicus", 0.41),
    ("NS(=O)(=O)c1cc(C(=O)O)c(NCc2ccco2)cc1Cl [FUROSEMIDE]", "Rattus norvegicus", 1.12),
    ("NS(=O)(=O)c1cc2c(cc1Cl)N(Cc1ccccc1)CC2", "Rattus norvegicus", 0.73),
]

What Ratio value was documented for this compound, `Cl.NS(=O)(=O)c1cc2c(cc1Cl)NCC2` ?
0.76

I would be grateful if you could share the reported Ratio for `NS(=O)(=O)c1cc2c(cc1Cl)N(C(=O)c1ccco1)CC2` .
0.38

Need Ratio of `CCCCN1CCc2cc(S(N)(=O)=O)c(Cl)cc21` , thanks.
0.78

Would you kindly share the measured Ratio for `NS(=O)(=O)c1cc2c(cc1Cl)N(Cc1ccco1)CC2` ?
0.24

Name the recorded Ratio for NS(=O)(=O)c1cc2c(cc1Cl)N=CNS2(=O)=O [CHLOROTHIAZIDE] .
1.5

What does the record list as Ratio for `CCCC(=O)N1CCc2cc(S(N)(=O)=O)c(Cl)cc21` ?
0.53
